Task for the reader: assign each of the following molecules its reported Ki.
Molecular target: Serotonin 2 (5-HT2) receptor (Rattus norvegicus, UniProt P30994+P08909+P14842)
Test: Binding affinity against 5-hydroxytryptamine 2 receptor of rat frontal cortex using [3H]ketanserin radioligand
Type: tissue-based

What the record says about COc1cc(CC(C)N)c(OC)cc1O (centres undefined) : Ki is > 50000 nM

Ki for COc1cc(CC(C)N)c(OC)cc1C#N.Cl (centres undefined) is 2400 nM

Item: COc1cc(CC(C)N)c(OC)cc1I (centres undefined) | Ki: 19 nM

Per the record, COc1cc(CC(C)N)c(OC)cc1Cc1ccccc1.Cl (centres undefined) has Ki of 7 nM

get_value(item= CCCCCCCCc1cc(OC)c(CC(C)N)cc1OC.Cl (centres undefined) , readout=Ki) returns 3 nM

Data point: CCOc1cc(OC)c(CC(C)N)cc1OC (centres undefined) ; Ki = 2200 nM

So, COc1cc(C(C)(C)C)c(OC)cc1CC(C)N (centres undefined) ? Its Ki was 19 nM

The molecule COc1cc(C(=O)O)c(OC)cc1CC(C)N.Cl (centres undefined) showed Ki equal to > 50000 nM

Ki reading for COc1cc(C(=N)N)c(OC)cc1CC(C)N (centres undefined) : 7 nM

Reported Ki for COc1cc(CC(C)N)c(OC)cc1CCCc1ccccc1.Cl (centres undefined) was 10 nM

// field: Ki; key: COc1cc(CC(C)N)c(OC)cc1Cl (centres undefined) ; value = 218 nM

// Ki lookup, molecule = CCCCc1cc(OC)c(CC(C)N)cc1OC (centres undefined) , result: 58 nM

Reported Ki for COc1cc(C(C)C)c(OC)cc1CC(C)N (centres undefined) was 76 nM

GET /value?item= CCC(=O)c1cc(OC)c(CC(C)N)cc1OC.Cl (centres undefined) &field=Ki returns 735 nM

* * *

Answer each item with its documented Ki.
Biological target: Serotonin 2 (5-HT2) receptor (Rattus norvegicus, UniProt P30994+P08909+P14842)
Experiment: Binding affinity against 5-hydroxytryptamine 2 receptor of rat frontal cortex using [3H]ketanserin radioligand
Type: tissue-based
Kindly answer with a numeric value in nM, unit omitted.

Input COc1cc(CC(C)N)c(OC)cc1N (stereo not given) . Output Ki: 26000

In plain terms, CCCCOC(=O)c1cc(OC)c(CC(C)N)cc1OC (stereo not given) has a documented Ki of 1530

Looking up CCCOC(=O)c1cc(OC)c(CC(C)N)cc1OC (stereo not given) , I see its Ki listed as 2460

Ki for CCCCCCc1cc(OC)c(CC(C)N)cc1OC.Cl (stereo not given) is 2.5

The compound CCCNC(=O)c1cc(OC)c(CC(C)N)cc1OC (stereo not given) showed Ki equal to 7550

// provenance: ChEMBL document CHEMBL1124715
